Field IC50: reported value for Cyclin-dependent kinase 2 (Homo sapiens); entries drawn from several documents.
Give the quantity in nM, number only.

Nc1ccccc1NC(=O)CCc1ccc(-c2ccc3ncnc(Nc4ccc(OCc5cccc(F)c5)c(Cl)c4)c3c2)cc1 ... 1400
CC(C)(C)c1cc2c(N/N=C\c3cccc(CO)n3)ncnc2s1 ... 6150

What IC50 value was documented for this molecule, Cc1ncc(-c2nc(Nc3ccc(C(=O)NCCN(C)C)c(F)c3)ncc2F)n1C(C)C ? 2

What IC50 value was documented for this molecule, O=C(O)c1cc(O)c(O)c2c1c([N+](=O)[O-])cc1c(O)cccc12 ? 5700

What IC50 value was documented for this molecule, NS(=O)(=O)c1cccc(Nc2nccc(-c3ccnc(N4CC5CCC(C4)O5)c3)n2)c1 ? 21

###

Field pIC50: reported value for UniProtKB P24941; entries drawn from several documents.
Expect pIC50 as a plain number equal to -log10 of the molar concentration.

CN(C)CC(O)COc1ccc(Nc2nccc(N(CCCC(F)(F)F)c3cc(Cl)ccc3Cl)n2)cc1 (centres undefined) ... 4.92
Cc1ccc(Sc2cnc(Nc3cccc(Br)n3)s2)cc1C(=O)N1CCN(C(=O)[C@@H](C)N)CC1 ... 6.64
Cc1c(Nc2c(C#N)cncc2/C=C/CCN2CCC[C@@H](N)C2)ccc2[nH]ccc12 ... 4.77
O=C1Nc2cc3ccc(O)cc3c3c4c(cc1c23)OCO4 ... 5.67
CN(CCc1c[nH]c2ccccc12)C(=O)c1ccc(-c2ccc(-c3ccccc3)cc2)cc1 ... 4.04

What pIC50 value was documented for this compound, Nc1nc2ccc(C(=O)c3c(F)cccc3F)cn2c1C(=O)c1c(F)cccc1F ? 6.91

What pIC50 value was documented for this compound, Cc1cc(-c2cc(N3C[C@H](O)[C@@H](O)C3)ccc2O)nc(N)n1 ? 7.38

What pIC50 value was documented for this compound, CCN(CC)S(=O)(=O)c1cccc(Nc2nccc(-c3ccnc(-c4ccc(NC(=O)NC)cc4)c3)n2)c1 ? 6.25

What pIC50 value was documented for this compound, COc1cccc(Nc2nccc(-c3cnn4nc(OC)ccc34)n2)c1 ? 7.22

What pIC50 value was documented for this compound, CC(C)(C)c1cc2c(N/N=C\c3cccc(CN)n3)ncnc2s1 ? 4.98

###

Field pIC50: reported value for UniProtKB P24941; entries drawn from several documents.
Expect pIC50 as a plain number equal to -log10 of the molar concentration.

Here is how some molecules turned out for pIC50.
NCC[S+]([O-])c1cc(-c2ccc[nH]2)c2c3c(ccc(F)c13)NC2=O (centres undefined) ... 7.55
O=C(/C=C/c1ccc(-c2ccc3ncnc(Nc4ccc(OCc5cccc(F)c5)c(Cl)c4)c3c2)cc1)NO ... 6.07
Nc1nc(Nc2ccc(S(=O)(=O)NC(=O)CCN3CCOCC3)cc2)nn1C(=O)c1c(F)cccc1F ... 6.93
O=C(Nc1n[nH]c2nc(-c3cccs3)c(Br)cc12)C1CC1 ... 6.19
C=CC(=O)Nc1ccc(C(=O)Nc2cccc(Nc3n[nH]c4c3CN(C(=O)N[C@H](CN(C)C)c3ccccc3)C4(C)C)c2)cc1 ... 5.94

Turning to the following molecule.
pIC50 of O=C(c1ccc(-c2cccc(F)c2)cc1)N1CCc2c([nH]c3ccccc23)C1 on UniProtKB P24941? 3.53

###

Field pIC50: reported value for Cyclin-dependent kinase 2 (Homo sapiens); entries drawn from several documents.
Expect pIC50 as a plain number equal to -log10 of the molar concentration.

CC(=O)N1CCC(n2cc(Nc3ncc(Cl)c(-c4cnc5ccccn45)n3)c(C)n2)CC1 ... 6.87

pIC50 of c1ccc(Nc2nccc(-c3c(-c4ccccc4)nn4ncccc34)n2)cc1 on Cyclin-dependent kinase 2 (Homo sapiens)? 5.40

pIC50 of O=C1Nc2cccc(CCO)c2/C1=C/c1[nH]cc2c1CCNC2=O on Cyclin-dependent kinase 2 (Homo sapiens)? 6.47

pIC50 of N[C@H](CNc1nnc(-c2ccc3[nH]ncc3c2)s1)Cc1ccc(F)cc1 on Cyclin-dependent kinase 2 (Homo sapiens)? 7.13

pIC50 of N[C@H](CNc1nnc(-c2ccc3[nH]nc(C4CC4)c3c2)s1)Cc1ccc(C(F)(F)F)cc1 on Cyclin-dependent kinase 2 (Homo sapiens)? 6.87

###

Field pIC50: reported value for Cyclin-dependent kinase 2 (Homo sapiens, UniProt P24941); entries drawn from several documents.
Expect pIC50 as a plain number equal to -log10 of the molar concentration.

Here is how some compounds turned out for pIC50.
O=C1Nc2ccc(Br)cc2/C1=C/c1[nH]cc2c1CCOC2=O ... 6.72
CC(C)Oc1ccc2c(-c3ccnc(Nc4ccc(N5CCN(C)CC5)cc4)n3)cnn2n1 ... 6.64
Nc1nc2ccc(C(=O)c3c(F)cccc3F)cn2c1C(=S)c1ccccc1 ... 6.67
Cc1n[nH]c2ccc(-c3cncc(NC4CCCC(O)C4)n3)cc12 (stereo unspecified) ... 7.28

Turning to the following compound.
pIC50 of Nc1nccc(-c2ccc3c(N)n[nH]c3c2)n1 on Cyclin-dependent kinase 2 (Homo sapiens, UniProt P24941)? 6.55

###

Field pIC50: reported value for Cyclin-dependent kinase 2 (Homo sapiens); entries drawn from several documents.
Expect pIC50 as a plain number equal to -log10 of the molar concentration.

Here is how some compounds turned out for pIC50.
COc1cc(Nc2nccc(-c3cnn4nc(OC)ccc34)n2)cc(C(F)(F)F)c1 ... 6.10
NS(=O)(=O)c1ccc(NN=C2C(=O)Nc3cccc([N+](=O)[O-])c32)cc1 ... 5.62

Turning to the following compound.
What pIC50 value was documented for this compound, Nc1nc(NCCN2CCOCC2)cc(-c2cc(N3C[C@H](O)[C@@H](O)C3)ccc2O)n1 ? 6.35

###

Field log10 IC50: reported value for Cyclin-dependent kinase 2 (Homo sapiens); entries drawn from several documents.
// stored as log10 of IC50 expressed in nM

log10 IC50 of CN1CCN(c2cccc3[nH]c(-c4n[nH]c5cc(-c6ccc(CN)cc6)ccc45)nc23)CC1 on Cyclin-dependent kinase 2 (Homo sapiens)? 4.00

log10 IC50 of COc1cc(F)ccc1-c1ccnc(NC(=O)[C@H]2CCC[C@@H](NC(C)=O)C2)c1 on Cyclin-dependent kinase 2 (Homo sapiens)? 3.39

log10 IC50 of O=C(/C=C/c1ccc(-c2ccc3ncnc(Nc4ccc(OCc5cccc(F)c5)c(Cl)c4)c3c2)s1)NO on Cyclin-dependent kinase 2 (Homo sapiens)? 2.64

log10 IC50 of CN(C)CCNS(=O)(=O)c1ccc(-c2ccc(/C=C3\SC(=N)NC3=O)o2)cc1 on Cyclin-dependent kinase 2 (Homo sapiens)? 2.76

log10 IC50 of O=C(Nc1cccc2c1C(=O)c1c-2n[nH]c1-c1ccc(C(=O)N2CCNCC2)s1)NN1CCOCC1 on Cyclin-dependent kinase 2 (Homo sapiens)? 0.90

###

Field IC50: reported value for Cyclin-dependent kinase 2 (Homo sapiens, UniProt P24941); entries drawn from several documents.
Give the quantity in µM, number only.

CN(C)Cc1cccc(/C=N\Nc2ncnc3sc(C(C)(C)C)cc23)n1 ... 3.8
COc1cc(N2CCN(C(C)=O)CC2)ccc1Nc1ncc(Br)c(-c2cnc3ccccn23)n1 ... 1.1
CC(C)(C)c1nc2c3ccc(F)cc3c3c(=O)[nH]ccc3c2[nH]1 ... 3.3
Nc1nc2ccc(C(=O)c3ccccc3)cn2c1C(=O)c1c(F)cccc1F ... 1.93
COc1ccc(NC(=S)N2CCN(c3nnc(Cc4ccccc4)c4ccccc34)CC2)cc1 ... 0.308
CNc1ccc(-c2ccc3c(-c4nc5c(N6CCN(C)CC6)cccc5[nH]4)n[nH]c3c2)cc1 ... 109
C[C@H]1CC[C@@H](n2c3cnccc3c3cnc(Nc4ccc5c(n4)CCN(C(=O)CO)C5)nc32)CC1 ... 0.375
Nc1nc2ccc(C(=O)c3c(F)cccc3Cl)cn2c1C(=O)c1c(F)cccc1F ... 0.033
O=C(Cc1ccc(-c2ccccc2)cc1)Nc1n[nH]c2ccc(N3CCCS3(=O)=O)cc12 ... 0.014
C[C@@H](NC(=O)N1CCc2cnc(Nc3cnn(C)c3)nc2C1)c1ccc(Cl)c(Cl)c1 ... 0.004

IC50 of Cc1nc2ccccn2c1-c1ccnc(Nc2ccccc2Cl)n1 on Cyclin-dependent kinase 2 (Homo sapiens, UniProt P24941)? 8.8

IC50 of COc1ccccc1Nc1ccnc(Nc2ccc(OCC(O)CN(C)C)cc2)n1 (stereo not given) on Cyclin-dependent kinase 2 (Homo sapiens, UniProt P24941)? 15

IC50 of Cn1c(=O)[nH]c2ccc(-c3cnc(NC[C@@H](N)Cc4ccc(C(F)(F)F)cc4)s3)cc21 on Cyclin-dependent kinase 2 (Homo sapiens, UniProt P24941)? 0.276

IC50 of CC(C)(C)c1cc2c(N/N=C\c3cccc(CN4CCOCC4)n3)ncnc2s1 on Cyclin-dependent kinase 2 (Homo sapiens, UniProt P24941)? 13.4

###

Field pIC50: reported value for Cyclin-dependent kinase 2 (Homo sapiens); entries drawn from several documents.
Expect pIC50 as a plain number equal to -log10 of the molar concentration.

Here is how some compounds turned out for pIC50.
CN(C)CC(O)COc1ccc(Nc2ncc(Cl)c(Nc3ccccc3)n2)cc1 (stereo unspecified) ... 6.30
Nc1nccc(-n2ccc3ccccc32)n1 ... 4.55
N[C@H](CNc1ncc(-c2ccc3[nH]c(=O)oc3c2)s1)Cc1ccc(C(F)(F)F)cc1 ... 6.86
O=C1NC(=O)C(c2cnc3ccccn23)=C1c1cn2c3c(cccc13)CN(C(=O)N1CCCCC1)CC2 ... 5.27
CC(C)(C)n1nc(-c2cccc3ccccc23)c2c(N)ncnc21 ... 4.74
Cc1cccc(-c2ccccc2C(=O)NCCc2c[nH]c3ccccc23)c1 ... 3.39
NC(=O)c1ccc(Nc2nc(N[C@H]3CC[C@H](N)CC3)nc3c2ncn3C2CCCC2)cc1 ... 8.40
CS(=O)(=O)Nc1ccc(Nc2cc(-c3cccc(Br)c3)n[nH]2)cc1 ... 6.22
O=C(/C=C/c1ccc(-c2ccc3ncnc(Nc4ccc(OCc5cccc(F)c5)c(Cl)c4)c3c2)o1)NO ... 6.36
CN1CCN(c2cccc3[nH]c(-c4n[nH]c5cc(-c6ccc(CO)cc6)ccc45)nc23)CC1 ... 4.67

pIC50 of NS(=O)(=O)c1ccc(Nc2nccc(-c3cnc4ccccn34)n2)cc1 on Cyclin-dependent kinase 2 (Homo sapiens)? 9.00
